- measured.target: IL-13 (Homo sapiens (Human), UniProt P35225 35-146, limits assumed)
- Sequence (P35225 35-146 limits assumed): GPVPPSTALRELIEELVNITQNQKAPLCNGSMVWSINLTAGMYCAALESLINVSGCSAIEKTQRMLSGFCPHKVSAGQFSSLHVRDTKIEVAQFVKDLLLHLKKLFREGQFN
- assay.protocol: Biacore
Listing of entries alongside the reported pKd.
Please note pKd is a logarithmic value: minus log10 of concentration in mol/L. Answer with that number alone.

[[record]]
binder = "M477 (antibody, V domains shown, anti-IL-13, human IgG1) VH: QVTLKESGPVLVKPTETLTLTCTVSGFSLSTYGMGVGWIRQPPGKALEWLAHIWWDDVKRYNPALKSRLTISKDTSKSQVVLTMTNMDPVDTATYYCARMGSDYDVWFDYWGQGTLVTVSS VL: EIVLTQSPATLSLSPGERATLSCRASKSISKYLAWYQQKPGQAPRLLIYSGSTLQSGIPARFSGSGSGTDFTLTISSLEPEDFAVYYCQQHSSGPYTFGQGTKLEIK"
measured_value = 9.31


Reported pKd for M454 (antibody, V domains shown, anti-IL-13, human IgG1) VH: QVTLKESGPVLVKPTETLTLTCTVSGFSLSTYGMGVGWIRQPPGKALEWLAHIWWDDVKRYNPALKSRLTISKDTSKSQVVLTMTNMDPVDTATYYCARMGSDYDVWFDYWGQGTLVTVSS VL: EIVLTQSPATLSLSPGERATLSCRASKSISKYLAWYQQKPGQAPRLLIYSGSTLQSGIPARFSGSGSGTDFTLTISSLEPEDFAVYYCQQQDYGPYTFGQGTKLEIK was 10.19

Measured pKd, M1375 (antibody, V domains shown) VH: QVTLKESGPVLVKPTETLTLTCTVSGFSLSTYGQGVGWIRQPPGKALEWLAHIWWDDVKRYNPALKSRLTISKDTSKSQVVLTMTNMDPVDTATYYCARLGSDYDVWFDYWGQGTLVTVSS VL: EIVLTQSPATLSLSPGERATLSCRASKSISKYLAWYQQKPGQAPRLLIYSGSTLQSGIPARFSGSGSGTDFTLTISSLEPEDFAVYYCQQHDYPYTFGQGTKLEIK : 10.62

Recorded pKd (binder M1292 (antibody, V domains shown) VH: QVTLKESGPVLVKPTETLTLTCTVSGFSLSTYGEGVGWIRQPPGKALEWLAHIWWDDVKRYNPALKSRLTISKDTSKSQVVLTMTNMDPVDTATYYCARLGSDYDVWFDYWGQGTLVTVSS VL: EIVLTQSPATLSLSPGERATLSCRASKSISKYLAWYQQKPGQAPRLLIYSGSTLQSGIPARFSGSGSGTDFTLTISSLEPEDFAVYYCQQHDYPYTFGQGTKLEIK ): 11.10

// field: pKd; key: M450 (antibody, V domains shown, anti-IL-13, human IgG1) VH: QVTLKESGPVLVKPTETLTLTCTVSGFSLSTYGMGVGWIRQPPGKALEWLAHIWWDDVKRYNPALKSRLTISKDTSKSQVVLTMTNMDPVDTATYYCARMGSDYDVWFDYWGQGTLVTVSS VL: EIVLTQSPATLSLSPGERATLSCRASKSISKYLAWYQQKPGQAPRLLIYSGSTLQSGIPARFSGSGSGTDFTLTISSLEPEDFAVYYCQQHDPGPYTFGQGTKLEIK ; value = 10.20

Data credit: patent US20100261620A1
